- Subject of test: 5-hydroxytryptamine receptor 1E (Homo sapiens) (UniProt P28566)
- Sequence (P28566 whole entry, looked up): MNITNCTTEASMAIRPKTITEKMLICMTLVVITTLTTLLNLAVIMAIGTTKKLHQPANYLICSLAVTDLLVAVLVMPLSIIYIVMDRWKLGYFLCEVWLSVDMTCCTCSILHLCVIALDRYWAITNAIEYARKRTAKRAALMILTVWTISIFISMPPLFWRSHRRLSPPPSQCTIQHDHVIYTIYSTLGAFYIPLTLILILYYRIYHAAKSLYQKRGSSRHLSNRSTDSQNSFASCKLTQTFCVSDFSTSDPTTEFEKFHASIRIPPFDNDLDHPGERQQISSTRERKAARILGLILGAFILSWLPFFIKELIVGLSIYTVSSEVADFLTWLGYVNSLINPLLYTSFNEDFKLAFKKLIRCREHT
- Test method notes: 5-HT1E receptor agonists, primary screen, cell-based, HTS (AID 574);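 also: 100% = positive control agonist at 1 µM giving full maximal response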
- Measurement setup: CHO 5-HT1E Ga15 NFAT-bla reporter, FRET; at 6 µM; stronger effect = higher value; 0% DMSO wells, 100% control agonist wells
The campaign covered roughly 65,000 compounds. About 450 (0.69%) were called active. The sample holds actives, similar compounds and a random draw of the others, so the mix is not that of the screen.
Quantity measured: activation

Recorded results for 6 compounds are shown here.
Compound	activation
CC(C)OCCCNC(=O)CNC(=O)c1cccs1	1.3% (inactive)
COc1ccc(/C(O)=C2/C(=O)C(=O)N(c3nc(C)c(C)s3)C2c2ccco2)cc1 (configuration not stated)	0.5% (inactive)
O=C(Nc1ccc(Oc2ccccc2)cc1)c1ccco1	0.3% (inactive)
O=c1nc2s/c(=C\c3ccco3)c(=O)n2nc1Cc1ccccc1	17.9% (active)
COC(=O)C(C)C1Sc2ccccc2NC1=O (configuration not stated)	0.6% (inactive)
CN(C(=O)C1CCOC1)c1nnc(-c2cccnc2)s1 (configuration not stated)	-1.1% (inactive)

Query :: Form field: activation recorded for `Cc1cc(=O)n(C)c(=O)n1CCCNc1ccccc1` with 5-hydroxytryptamine receptor 1E (Homo sapiens) (UniProt P28566) (enter value)
Result :: -0.1% (inactive)

Query :: Next up: CC(=O)c1cccc(NC(=O)N2CCCC2C(=O)NCCC(C)C)c1 (configuration not stated)
Result :: -0.1% (inactive)

Query :: Next up: NC(CSC12CC3CC(CC(C3)C1)C2)C(=O)O (configuration not stated)
Result :: 0.4% (inactive)

Query :: Next up: `CCOc1cc(NC(=O)c2ccco2)c(OCC)cc1NC(=O)COc1ccccc1`
Result :: 9.5% (active)

Query :: Next up: `CCOc1ccccc1/C=c1\sc2nc(-c3ccco3)nn2c1=O`
Result :: 0.9% (inactive)

Query :: Next up: CCCN1C(=O)C(NC(C)=O)c2cc(OC)ccc21 (configuration not stated)
Result :: 0.7% (inactive)

###

Listed next: entries and their corresponding activation.
- Subject of test: 5-hydroxytryptamine receptor 1E (Homo sapiens) (UniProt P28566)
- Test method notes: 5-HT1E receptor agonists, primary screen, cell-based, HTS (AID 574);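 also: 100% = positive control agonist at 1 µM giving full maximal response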
- Measurement setup: CHO 5-HT1E Ga15 NFAT-bla reporter, FRET; at 6 µM; stronger effect = higher value; 0% DMSO wells, 100% control agonist wells
Hit rate of the full screen: of about 65,000 compounds, about 450 (0.69%) were called active. This excerpt belongs to a sample that is enriched for actives.
Form entry: value (%) — number only.

Query :: # input molecule: CCOc1ccc(-n2c(SC(C)C(=O)OC)nc3c(c2=O)SCC3)cc1 (stereo not drawn) ; wanted: its activation
Result :: 0.4

Query :: Next up: `CCOC(=O)N1CCN(C(=O)c2cnc3n(c2=O)CCS3)CC1`
Result :: 4.1

Query :: Next up: `Cc1nnc(SCc2ccc(C(=O)c3ccc(Cl)cc3)o2)n1-c1ccccc1`
Result :: 0.9

Query :: Next up: CC1=C(C(=O)OC2CCCCC2)C(c2cccnc2)n2ncnc2N1 (stereo not drawn)
Result :: -0.4

Query :: Next up: `CC(C)OC(=O)CN1C(=O)c2ccccc2C1=O`
Result :: 0.5

Query :: Next up: Cc1ccc(C(C(=O)NCc2ccco2)N(CC2CCCO2)C(=O)Cn2nnc3ccccc32)cc1 (stereo not drawn)
Result :: 0.3

Query :: Next up: `CCS(=O)(=O)N1CCN(C(=O)c2cccs2)CC1`
Result :: 0.5

Query :: Next up: CCCOc1ccc(/C(O)=C2/C(=O)C(=O)N(CCN(C)C)C2c2ccc(OC)c(OC)c2)cc1 (stereo not drawn)
Result :: -0.3

Query :: Next up: `COC(=O)c1ccc(NC(=O)c2ccco2)cc1`
Result :: 0.1

Query :: Next up: `CCN(Cc1ccccc1)C(=O)CSc1nc(C)cc2c1C(=O)OC2`
Result :: -0.3

Query :: Next up: `CCOC(=O)N1CCC(NC(=O)c2ccc3nc(N4CCOCC4)sc3c2)CC1`
Result :: -0.6
